test system: wild-type C57BL/6J mouse and homo knockout mouse of the TMC6 gene; experiment: Palatability tests for taste substances other than NaCl, two-bottle method; format: in vivo; details: 48 hr, taste substance aqueous solution versus control aqueous solution
Where a name gives a salt, the structure may show the parent alone.
Experimental Endpoint: difference in palatability or repellency between Tmc6 −/− mouse and wild-type mouse

>  <Compound>
C=C[C@H]1C[N@@]2CC[C@H]1C[C@H]2[C@H](O)c1ccnc2ccc(OC)cc12 [Quinine HCl, quinine hydrochloride]

>  <Target Or Test System>
wild-type C57BL/6J mouse and homo knockout mouse of the TMC6 gene

>  <Value Reported>
No difference

$$$$
>  <Compound>
N[C@@H](CCC(=O)O)C(=O)[O-].[Na+] [MSG, monosodium glutamate]

>  <Target Or Test System>
wild-type C57BL/6J mouse and homo knockout mouse of the TMC6 gene

>  <Value Reported>
No difference

$$$$
>  <Compound>
O=C(O)CC(O)(CC(=O)O)C(=O)O [Citric acid, citric acid]

>  <Target Or Test System>
wild-type C57BL/6J mouse and homo knockout mouse of the TMC6 gene

>  <Value Reported>
No difference

$$$$
>  <Compound>
OC[C@H]1O[C@@](CO)(O[C@H]2O[C@H](CO)[C@@H](O)[C@H](O)[C@H]2O)[C@@H](O)[C@@H]1O [Sucrose, sucrose]

>  <Target Or Test System>
wild-type C57BL/6J mouse and homo knockout mouse of the TMC6 gene

>  <Value Reported>
No difference

$$$$

API: the following record is the query input.
Can you look up the measured difference in palatability or repellency between Tmc6 −/− mouse and wild-type mouse of O=C(CO)[C@@H](O)[C@H](O)[C@H](O)CO [Fructose, fructose] for me? No difference
